FYI, the data here is from ChEMBL document CHEMBL1201862.

test system: HL-60; test: NCI tumour cell line growth inhibition, 48 h
The source made the active and inactive calls. Rule as the data show it: active = GI50 up to about 1.1 µM and inactive = higher.
ASSAY_ENDPOINT: GI50

// solved cases for GI50 follow
{"columns": ["MOLECULE", "MEASURED_TARGET", "GI50"],
 "data": [
  ["Nc1ncc(Cc2nn3c(COc4ccc(Cl)cc4)nnc3s2)s1", "HL-60", "> 100 µM (inactive)"],
  ["C[C@@H](CC(=O)O)OC1OC(COC(=O)C(C)(C)C)C(OC(=O)C(C)(C)C)C(OC(=O)C(C)(C)C)C1OC(=O)C(C)(C)C (stereo not given in full)", "HL-60", "21.9 µM (inactive)"],
  ["Cn1cnc([N+](=O)[O-])c1Sc1nncc2[nH]cnc12", "HL-60", "> 100 µM (inactive)"],
  ["O=C(/C=C/c1ccccc1)CCN1CCN(CCC(=O)/C=C/c2ccccc2)CC1", "HL-60", "3.64 µM (inactive)"],
  ["CCOC(=O)/C(C#N)=C(O)/C(=C\\c1ccc(Br)cc1)NC(=O)c1ccccc1", "HL-60", "> 100 µM (inactive)"],
  ["N#C[C@](CO)(NC(=O)OCc1ccccc1)C(F)F", "HL-60", "> 100 µM (inactive)"]
]}

Incoming: So what does the record say about GI50 for CCO/C=N\C1=C(C#N)SC2=N/C(=C\c3ccc(OC)cc3)C(=O)N21 ?
Outgoing: 87.1 µM (inactive)

Incoming: So what does the record say about GI50 for O=C(O)C1=NN=C(C(=O)O)NN1 ?
Outgoing: > 100 µM (inactive)

Incoming: So what does the record say about GI50 for C#C[C@]1(O)CC[C@H]2[C@@H]3CCC4=C/C(=N/OC(=O)c5cccc6c(=O)c7ccccc7[nH]c56)CC[C@@H]4[C@H]3CC[C@@]21C ?
Outgoing: 17.4 µM (inactive)

Incoming: So what does the record say about GI50 for CCOc1cc2c(cc1OC)c[n+](C)c1c3cc(OC)c(OC)cc3ccc21 ?
Outgoing: 17.2 µM (inactive)

* * *

Each item that follows carries a reported GI50.
system: SK-MEL-28; assay: NCI tumour cell line growth inhibition, 48 h
Activity calls are given as the source filed them. Cut-off read from the data, not from the text of the source: active = GI50 up to about 1.1 µM and inactive = higher.

{"columns": ["COMPOUND", "MEASURED_TARGET", "GI50"],
 "data": [
  ["CO/N=C1\\CC(NC(=O)C(F)(F)F)c2ccsc21 (stereo not given)", "SK-MEL-28", "> 100 µM (inactive)"],
  ["O=C1/C(=C(/Br)I)c2ccccc2-c2ccccc21", "SK-MEL-28", "21.5 µM (inactive)"],
  ["COC(=O)c1c2cccccc-2c(Cc2c3cccccc-3c(C(=O)OC)c2O)c1O", "SK-MEL-28", "> 100 µM (inactive)"],
  ["CCCCC(C)(C/C=C/[C@@H]1[C@@H](C(O)CCCCCC(=O)OC)C(=O)C[C@H]1O[Si](C)(C)C(C)(C)C)O[Si](C)(C)C (stereo not given in full)", "SK-MEL-28", "77.4 µM (inactive)"]
]}

Now look at this entry.
Incoming: So what does the record say about GI50 for Cn1c(=O)c2[nH]c(C3CC(=O)CC(c4nc5c([nH]4)c(=O)n(C)c(=O)n5C)N3)nc2n(C)c1=O (stereo not given) ?
Outgoing: > 100 µM (inactive)
